Provenance of the data: ChEMBL document CHEMBL3739273

Target: Cytochrome P450 2A6 (Homo sapiens, UniProt P11509)
Sequence (P11509 whole entry): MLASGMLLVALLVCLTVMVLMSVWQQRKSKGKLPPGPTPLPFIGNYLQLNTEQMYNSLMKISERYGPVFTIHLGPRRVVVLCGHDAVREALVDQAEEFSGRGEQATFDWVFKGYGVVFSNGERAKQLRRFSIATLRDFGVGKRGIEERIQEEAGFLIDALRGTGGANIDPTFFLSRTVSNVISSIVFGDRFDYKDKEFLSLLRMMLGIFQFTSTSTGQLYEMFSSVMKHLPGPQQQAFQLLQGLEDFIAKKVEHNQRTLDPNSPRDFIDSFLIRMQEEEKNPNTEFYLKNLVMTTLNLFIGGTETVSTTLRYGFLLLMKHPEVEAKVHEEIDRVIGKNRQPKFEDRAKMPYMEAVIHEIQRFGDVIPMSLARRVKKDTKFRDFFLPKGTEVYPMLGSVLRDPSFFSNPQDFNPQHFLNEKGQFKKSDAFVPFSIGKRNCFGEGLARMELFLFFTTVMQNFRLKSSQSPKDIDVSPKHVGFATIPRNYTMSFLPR
Please respond with criterion met when measured Ki is strictly beneath 3 nM, and with criterion not met in all other cases.

>  <smiles structure>
O=Cc1cn(-c2nc(-c3cc4c(ccc5ccccc54)oc3=O)cs2)nc1-c1ccccc1

>  <answer label>
criterion met

$$$$
>  <smiles structure>
O=Cc1cn(-c2nc(-c3cc4cc(Br)ccc4oc3=O)cs2)nc1-c1ccccc1

>  <answer label>
criterion not met

$$$$
>  <smiles structure>
Cc1ccc(-c2nn(-c3nc(-c4cc5cc(Cl)cc(Cl)c5oc4=O)cs3)cc2C=O)cc1

>  <answer label>
criterion met

$$$$
>  <smiles structure>
O=Cc1cn(-c2nc(-c3cc4cc(Cl)cc(Cl)c4oc3=O)cs2)nc1-c1ccc(Cl)cc1

>  <answer label>
criterion met

$$$$
>  <smiles structure>
O=Cc1cn(-c2nc(-c3cc4cc(Br)cc(Br)c4oc3=O)cs2)nc1-c1ccccc1

>  <answer label>
criterion not met

$$$$

###

Experiment: n-Octanol-phosphate buffer partition coefficient, log P of the compound at pH 7.4 after 30 mins by shake flask method
Assay type: physicochemical
Collected logD at 0.5 h values appear next to each entry.

>  <smiles structure>
O=Cc1cn(-c2nc(-c3cc4c(ccc5ccccc54)oc3=O)cs2)nc1-c1ccccc1

>  <logD at 0.5 h>
3.54

$$$$
>  <smiles structure>
Cc1ccc(-c2nn(-c3nc(-c4cc5cc(Cl)cc(Cl)c5oc4=O)cs3)cc2C=O)cc1

>  <logD at 0.5 h>
3.6

$$$$
>  <smiles structure>
O=Cc1cn(-c2nc(-c3cc4cc(Cl)ccc4oc3=O)cs2)nc1-c1ccc(Cl)cc1

>  <logD at 0.5 h>
3.06

$$$$
>  <smiles structure>
O=Cc1cn(-c2nc(-c3cc4cc(Br)ccc4oc3=O)cs2)nc1-c1ccccc1

>  <logD at 0.5 h>
3.3

$$$$
>  <smiles structure>
O=Cc1cn(-c2nc(-c3cc4cc(Cl)cc(Cl)c4oc3=O)cs2)nc1-c1ccc(Cl)cc1

>  <logD at 0.5 h>
3

$$$$
>  <smiles structure>
Cc1ccc(-c2nn(-c3nc(-c4cc5cc(Br)cc(Br)c5oc4=O)cs3)cc2C=O)cc1

>  <logD at 0.5 h>
3.34

$$$$
>  <smiles structure>
O=Cc1cn(-c2nc(-c3cc4cc(Br)ccc4oc3=O)cs2)nc1-c1ccc(Cl)cc1

>  <logD at 0.5 h>
3.07

$$$$
>  <smiles structure>
O=Cc1cn(-c2nc(-c3cc4cc(Br)cc(Br)c4oc3=O)cs2)nc1-c1ccccc1

>  <logD at 0.5 h>
3.11

$$$$
